experiment: S. cerevisiae growth inhibition in permissive medium (OD615), pilot counter-assay for S. cerevisiae lifespan shortening project, permissive growth control (AID 705); conditions: OD615, 24 h, at 10 µM
Activity calls are given as the source filed them.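 How the source made its calls: active means growth inhibition above 25% in both replicates, a cutoff set 3 SD above the mean; inconclusive means above 25% in only one replicate; inactive means the rest.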
The categories you may choose from are active, inactive

compound	class name
CCCCP(=O)(O)c1ccccc1	inactive
O=C(Nc1ccccc1OC(=O)N1CCCCC1)N1CCCCC1	inactive
CN(C)C(=O)Oc1ccc(C(=O)c2ccccc2)cc1	inactive

Incoming: // outcome(item) with item = CN1CCN(CCC(C#N)(c2ccccc2)c2ccccc2)CC1
Outgoing: inactive

Incoming: How was COC(=O)c1ccc(CN2CCN(Cc3ccccc3)CC2)cc1 classified in this test?
Outgoing: inactive

Incoming: Hi, do you know how c1ccc(C2NCc3ccccc3-n3cccc32)cc1 (stereo not given) came out in this test?
Outgoing: inactive

Incoming: What classification did CCOc1ccc(-n2c(O)c(C=Nc3ccc(N4CCOCC4)cc3)c(=O)[nH]c2=O)cc1 end up with in this test?
Outgoing: inactive

Incoming: What did this assay record as the result for CC1(C)C(c2ccccc2)=NC(c2cccnc2)=[N+]1[O-] ?
Outgoing: inactive

Incoming: For O=C(O)C1CSC(c2cccnc2)N1 (stereo not given) , which call appears in the assay record?
Outgoing: inactive

Incoming: Recorded test call requested for NC(=O)CN1CC(c2ccccc2)CC1=O (stereo not given)
Outgoing: inactive

Incoming: Give the logged outcome of this assay for the following compound: CCCOC(=O)COc1cc(C)cc2oc(=O)c3c(c12)CCC3
Outgoing: inactive

Incoming: Record lookup: outcome of this test for CC(=O)Nc1ccc(OC(=O)c2ccccc2N)cc1 ?
Outgoing: inactive

----------
biological target: Pantothenate synthetase (Mycobacterium tuberculosis (strain ATCC 25618 / H37Rv)); test: Coupled enzyme confirmation of inhibitors against recombinant Mtb PanC (AID 375); conditions: coupled enzyme assay; at 10 µM, hits give high values;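 further: 0% = full reaction with vehicle and 100% = no enzyme background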
recorded metric: inhibition (%)
Give bare numbers, in %.

compound	endpoint unit	inhibition
CC(C)Cn1c(CN2CCCCC2C)nc2c1c(=O)n(C)c(=O)n2C (stereo unspecified)	%	0

Below are 2 compounds. Give each one its inhibition.
1. Cc1ccccc1OCc1nnc2n1CC(C)S2 (stereo unspecified)
2. c1ccc(Cc2nn3c(Cn4cnc5ccccc54)nnc3s2)cc1

Outgoing:
0
4

For each of the compounds below, note its inhibition.
1. Nc1ccc(C2(c3ccc(N)cc3)CN3CCC2CC3)cc1
2. COc1cc2c(cc1OC)C(c1ccc(C)o1)CC(=O)N2 (stereo unspecified)
3. CCOc1cc(S(=O)(=O)Nc2ccccn2)ccc1F
4. O=C(COc1ccccc1)Nc1ccccc1N1CCN(c2ccccc2)CC1
5. COCCOC(=O)c1c(C)oc2ccc(NS(=O)(=O)c3ccc(F)cc3)cc12
6. Cc1nn(-c2ccc(F)cc2)c2sc(C(=O)N3CCCCCC3)cc12

Outgoing:
0
3
0
2
3
0

Below is a list of compounds. For each, state its recorded inhibition.
1. Cn1c(=O)c2c(nc(N3CCN(c4ccccc4)CC3)n2CCCc2ccccc2)n(C)c1=O
2. Cn1cc(-c2nc3ccccc3[nH]2)c2ccccc21

Outgoing:
1: 0; 2: 4

----------
target: Pantothenate synthetase (Mycobacterium tuberculosis (strain ATCC 25618 / H37Rv)); assay: Coupled enzyme confirmation of inhibitors against recombinant Mtb PanC (AID 375); settings: coupled enzyme assay; at 10 µM, hits give high values;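 further: 0% = full reaction with vehicle and 100% = no enzyme background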
recorded metric: inhibition (%)
One number for each entry, in %.

Example entries and their recorded answers appear below.
molecule	endpoint unit	experimental value
CCCCC(=O)Nc1ccc(NC(=O)C2CC2)nc1	%	2
CCOc1ccccc1C1NC(=O)NC(C)=C1C(=O)OC1CCCC1C (stereo unspecified)	%	2
CC(=O)NCC(=O)N(Cc1ccco1)C1(C(=O)NC2CCCCC2)CCCCC1	%	0
Oc1cc(NCc2cccnc2)ccc1-c1nc2ccccc2o1	%	0
CCOc1cc(C2/C(=C(/O)c3ccc(OC(C)C)cc3)C(=O)C(=O)N2CCCOC)ccc1O (stereo unspecified)	%	0
CCCc1cc(=O)n2[nH]c(-c3ccc(Br)cc3)cc2n1	%	0
Cc1cccc(C2CC(c3ccccc3)Nc3nc(N)nn32)c1 (stereo unspecified)	%	0
Cn1c(=O)[nH]c(=O)c2c1nc(NCCCn1ccnc1)n2Cc1cccc(Br)c1	%	0
CCC1CCCCN1C(=O)C1CC(c2cc(Cl)c(OC)cc2OC)=NO1 (stereo unspecified)	%	1
c1ccc(-n2c(Sc3cnccn3)nnc2-c2cccs2)cc1	%	0

Readout inhibition for CC1=C(C(=O)OC2CCCC2)C(c2ccc(C)o2)C2=C(CC(c3cccs3)CC2=O)N1 (stereo unspecified) , test system Pantothenate synthetase (Mycobacterium tuberculosis (strain ATCC 25618 / H37Rv)), was 0
